- Tested on: MS2 coat protein
- ASSAY NAME: apparent KD of MS2 coat protein; designed switch direction (-1 OFF switch, 1 ON switch): -1; higher = weaker reporter binding
- REPORTED CONDITIONS: Eterna round: R95; input ligand: microRNA oligo, concentration not stated
VALUE TYPE: apparent KD of MS2 coat protein (nM)
State just the number; it will be interpreted in nM.

Take a look at these entries with their results.
[[record]]
item_sequence = "GCGCAGUCAGGAUAUGCCGCUUGCGAUCACCGUUGGCAAAGGCAGAAGGGACAUGAGGAUCACCCAUGUGGCGC [e4e Mirror Pins #3] (puzzle: Exclusion 4)"
reported_value = 18.1

[[record]]
item_sequence = "GUGGUACAUGAGGAUCACCCAUGUUAGGAUAUCGCGUGAGGUAAAACUUACACACACACGAGAAGGGACGACAU (puzzle: Exclusion 1)"
reported_value = 64.4

[[record]]
item_sequence = "AAAGUGUGAGGAUAUCCUGGGCUGGGCCGGGAGGUUCGGUUGGAGAAGGCACAUGAGGAUCACCCAUGUAACGG [Excls4-IX] (puzzle: Exclusion 4)"
reported_value = 57.1

[[record]]
item_sequence = "AGUAACCGUCACGAAAGUGAUGGUUACACAAGCAAAUGUACAUGAGGAUCACCCAUGUCCUCGUUUGCUCGUCUUAU [Sensor 3 - 49] (puzzle: Sensor v3, turn-off variant 2)"
reported_value = 96.7

[[record]]
item_sequence = "GGUCAAGAACAGCGCCGCGCUGCCCUUGACCGCUCAUUUACAUGAGGAUCACCCAUGUUUUUUGCUUGUCUUGUUUC [Tiordiri] (puzzle: Sensor v3, turn-off variant 2)"
reported_value = 101

[[record]]
item_sequence = "AAGAAACAUGAGGAUCACCCAUGUGAGGAUAUGAGUAAGAAAAGAAAAGAAAGAAGAUUCAGAAGGCACAAAGG [salish99-ex1_r3_057] (puzzle: Exclusion 1)"
reported_value = 58.1

[[record]]
item_sequence = "GAUGGAGAGCAGGAUAUCUUGGGUAAGCAUCAUAGAGAAGGGCUCACAUGAGGAUCACCCAUGUGGUCCAAGAA [Usbiridi] (puzzle: Exclusion 6)"
reported_value = 14.1

[[record]]
item_sequence = "UUAUUACAAGCAAGAUCCCACAUGAGGAUCACCCAUGUGCUCGUCUUAUAAGGUACUGUGACGAAAGUCACGGUACC [Sensor 3, v1 - 100] (puzzle: Sensor v3, turn-off variant 1)"
reported_value = 701

[[record]]
item_sequence = "AGUCUGCGAGGAUAUACAUGAGGAUCACCCAUGUGCGAGAAACUAGUGAGGUCGAUUGGUAGAAGGCGCGGACA [Mat - Exclusion 3 - Mod of JL D87] (puzzle: Exclusion 3)"
reported_value = 200

[[record]]
item_sequence = "CUAACACAUGAGGAUCACCCAUGUGAGGAUAUGCGUACGUUGUCCGUAGGCGACGUGCGCAGAAGGCGCUUGGU [JL-ex1-3.20 Eli mod] (puzzle: Exclusion 1)"
reported_value = 51.9


// next entry
Please tell me: apparent KD of MS2 coat protein of UAACCUAUUGUCAGGAUAUCUACGUGGUAUCAUGAGGAGAAGGGACAUGAGGAUCACCCAUGUGGAAGGGAAAA [Beques] (puzzle: Brourd's mod of Exclusion 4) , system MS2 coat protein?
31.1
